MCHC by entry:
Species on record: Rattus norvegicus
Experiment: Open TG-GATES - Regimen: Single
Assay type: toxicity, organism-based, Sprague-Dawley
Design: regimen Single, gender Male, age 6 weeks
Conditions: in vivo, po, 0 mg/kg, 6 h, tissue Blood, route gavage, dose level Control

{"Molecule": "O=C(O)COc1nn(Cc2ccccc2)c2ccccc12", "Units": "%", "MCHC": 33.4}
{"Molecule": "CC(=O)Nc1ccc2c(c1)Cc1ccccc1-2", "Units": "%", "MCHC": 34.6}
{"Molecule": "CC(C)Cc1ccc(C(C)C(=O)O)cc1 (configuration not stated)", "Units": "%", "MCHC": 34}
{"Molecule": "CC[C@@H](CO)NCCN[C@@H](CC)CO", "Units": "%", "MCHC": 34.1}
{"Molecule": "CCN(CC)N=O", "Units": "%", "MCHC": 34.3}
{"Molecule": "CC(CCc1ccccc1)NCC(O)c1ccc(O)c(C(N)=O)c1 (configuration not stated)", "Units": "%", "MCHC": 34}
{"Molecule": "CC(=O)N1CCN(c2ccc(OCC3COC(Cn4ccnc4)(c4ccc(Cl)cc4Cl)O3)cc2)CC1 (configuration not stated)", "Units": "%", "MCHC": 33.2}

----------
Hb by entry:
Species: Rattus norvegicus
Assay: Open TG-GATES - Regimen: Single
Assay type: toxicity, organism-based, Sprague-Dawley
Set-up: regimen Single, gender Male, age 6 weeks
Details: in vivo, po, 0 mg/kg, 6 h, tissue Blood, route gavage, dose level Control
Measurement kind: Hb (g/dL)

{"Molecule": "CC[C@@H](CO)NCCN[C@@H](CC)CO", "Endpoint value": 13.6}
{"Molecule": "CC(C)Cc1ccc(C(C)C(=O)O)cc1 (configuration not stated)", "Endpoint value": 13.6}
{"Molecule": "CC(CCc1ccccc1)NCC(O)c1ccc(O)c(C(N)=O)c1 (configuration not stated)", "Endpoint value": 13.3}
{"Molecule": "CCN(CC)N=O", "Endpoint value": 13.5}
{"Molecule": "CC(=O)N1CCN(c2ccc(OCC3COC(Cn4ccnc4)(c4ccc(Cl)cc4Cl)O3)cc2)CC1 (configuration not stated)", "Endpoint value": 13.2}
{"Molecule": "O=C(O)COc1nn(Cc2ccccc2)c2ccccc12", "Endpoint value": 13.9}
{"Molecule": "CC(=O)Nc1ccc2c(c1)Cc1ccccc1-2", "Endpoint value": 14.2}

----------
Organism: Rattus norvegicus
Experiment: Open TG-GATES - Regimen: Daily Repeat
Assay type: toxicity, organism-based, Sprague-Dawley
Parameters: regimen Daily Repeat, gender Male, age 6 weeks
Conditions: in vivo, po, 0 mg/kg, 72 h, tissue Plasma, route gavage, dose level Control, time 3 day
Measurement kind: gamma-GTP (IU/L)

{"Compound": "O=C(O)COc1nn(Cc2ccccc2)c2ccccc12", "Measurement kind": "gamma-GTP", "Units": "IU/L", "Endpoint value": 1.2}
{"Compound": "CC(C)Cc1ccc(C(C)C(=O)O)cc1 (stereo not drawn)", "Measurement kind": "gamma-GTP", "Units": "IU/L", "Endpoint value": 1.2}
{"Compound": "CC(N)=O [ACETAMIDE]", "Measurement kind": "gamma-GTP", "Units": "IU/L", "Endpoint value": 0.8}
{"Compound": "CC[C@@H](CO)NCCN[C@@H](CC)CO", "Measurement kind": "gamma-GTP", "Units": "IU/L", "Endpoint value": 1.4}
{"Compound": "CC(=O)Nc1ccc2c(c1)Cc1ccccc1-2", "Measurement kind": "gamma-GTP", "Units": "IU/L", "Endpoint value": 1.2}
{"Compound": "CC(CCc1ccccc1)NCC(O)c1ccc(O)c(C(N)=O)c1 (stereo not drawn)", "Measurement kind": "gamma-GTP", "Units": "IU/L", "Endpoint value": 1}
{"Compound": "CC(=O)N1CCN(c2ccc(OCC3COC(Cn4ccnc4)(c4ccc(Cl)cc4Cl)O3)cc2)CC1 (stereo not drawn)", "Measurement kind": "gamma-GTP", "Units": "IU/L", "Endpoint value": 1.4}
{"Compound": "CCN(CC)N=O", "Measurement kind": "gamma-GTP", "Units": "IU/L", "Endpoint value": 1}

----------
Species on record: Rattus norvegicus
Assay: Open TG-GATES - Regimen: Single
Format: toxicity, organism-based, Sprague-Dawley
Set-up: regimen Single, gender Male, age 6 weeks
Conditions: in vivo, po, 0 mg/kg, 3 h, tissue Blood, route gavage, dose level Control
Measurement kind: WBC (x10_2/uL)

{"Compound": "CC(CCc1ccccc1)NCC(O)c1ccc(O)c(C(N)=O)c1 (configuration not stated) [LABETALOL]", "Units": "x10_2/uL", "Endpoint value": 90.7}
{"Compound": "CC(=O)N1CCN(c2ccc(OCC3COC(Cn4ccnc4)(c4ccc(Cl)cc4Cl)O3)cc2)CC1 (configuration not stated) [KETOCONAZOLE]", "Units": "x10_2/uL", "Endpoint value": 73.4}
{"Compound": "CC(C)Cc1ccc(C(C)C(=O)O)cc1 (configuration not stated) [IBUPROFEN]", "Units": "x10_2/uL", "Endpoint value": 79.6}
{"Compound": "CC[C@@H](CO)NCCN[C@@H](CC)CO [ETHAMBUTOL]", "Units": "x10_2/uL", "Endpoint value": 97.7}
{"Compound": "CC(=O)Nc1ccc2c(c1)Cc1ccccc1-2 [2-ACETYLAMINOFLUORENE]", "Units": "x10_2/uL", "Endpoint value": 87.7}
{"Compound": "CCN(CC)N=O [N-NITROSODIETHYLAMINE]", "Units": "x10_2/uL", "Endpoint value": 66.1}
{"Compound": "O=C(O)COc1nn(Cc2ccccc2)c2ccccc12 [BENDAZAC]", "Units": "x10_2/uL", "Endpoint value": 108.6}

----------
IP by entry:
Species: Rattus norvegicus
Assay: Open TG-GATES - Regimen: Single
Format: toxicity, organism-based, Sprague-Dawley
Design: regimen Single, gender Male, age 6 weeks
Details: in vivo, po, 0 mg/kg, 6 h, tissue Plasma, route gavage, dose level Control
Measurement kind: IP (mg/dL)

{"Compound": "CC(=O)Nc1ccc2c(c1)Cc1ccccc1-2", "Measurement kind": "IP", "Units": "mg/dL", "Endpoint value": 9.7}
{"Compound": "CCN(CC)N=O", "Measurement kind": "IP", "Units": "mg/dL", "Endpoint value": 7.8}
{"Compound": "CC(=O)N1CCN(c2ccc(OCC3COC(Cn4ccnc4)(c4ccc(Cl)cc4Cl)O3)cc2)CC1 (stereo unspecified)", "Measurement kind": "IP", "Units": "mg/dL", "Endpoint value": 8.4}
{"Compound": "CC(C)Cc1ccc(C(C)C(=O)O)cc1 (stereo unspecified)", "Measurement kind": "IP", "Units": "mg/dL", "Endpoint value": 8.9}
{"Compound": "CC[C@@H](CO)NCCN[C@@H](CC)CO", "Measurement kind": "IP", "Units": "mg/dL", "Endpoint value": 9.2}
{"Compound": "O=C(O)COc1nn(Cc2ccccc2)c2ccccc12", "Measurement kind": "IP", "Units": "mg/dL", "Endpoint value": 9.6}

----------
Plat by entry:
Organism: Rattus norvegicus
Experiment: Open TG-GATES - Regimen: Daily Repeat
Assay type: toxicity, organism-based, Sprague-Dawley
Parameters: regimen Daily Repeat, gender Male, age 6 weeks
Settings: in vivo, po, 0 mg/kg, […], tissue Blood, route gavage, dose level Control, time 7 day

{"Compound": "CCN(CC)N=O", "Plat (x10_4/uL)": 142.9}
{"Compound": "CC(N)=O [ACETAMIDE]", "Plat (x10_4/uL)": 131.8}
{"Compound": "O=C(O)COc1nn(Cc2ccccc2)c2ccccc12", "Plat (x10_4/uL)": 128.1}
{"Compound": "CC(C)Cc1ccc(C(C)C(=O)O)cc1 (stereo not drawn)", "Plat (x10_4/uL)": 123.8}
{"Compound": "CC(=O)N1CCN(c2ccc(OCC3COC(Cn4ccnc4)(c4ccc(Cl)cc4Cl)O3)cc2)CC1 (stereo not drawn)", "Plat (x10_4/uL)": 91.9}
{"Compound": "CC[C@@H](CO)NCCN[C@@H](CC)CO", "Plat (x10_4/uL)": 110.1}
{"Compound": "CC(CCc1ccccc1)NCC(O)c1ccc(O)c(C(N)=O)c1 (stereo not drawn)", "Plat (x10_4/uL)": 117.8}
{"Compound": "CC(=O)Nc1ccc2c(c1)Cc1ccccc1-2", "Plat (x10_4/uL)": 138.4}

----------
Species on record: Rattus norvegicus
Test: Open TG-GATES - Regimen: Single
Format: toxicity, organism-based, Sprague-Dawley
Design: regimen Single, gender Male, age 6 weeks
Conditions: in vivo, po, 0 mg/kg, 9 h, tissue Blood, route gavage, dose level Control
Use criterion met when the recorded APTT is no lower than 20 s; use criterion not met when it is lower.

{"Molecule": "CCN(CC)N=O", "Qualitative label": "criterion not met"}
{"Molecule": "CC(C)Cc1ccc(C(C)C(=O)O)cc1 (configuration not stated)", "Qualitative label": "criterion met"}
{"Molecule": "CC(=O)N1CCN(c2ccc(OCC3COC(Cn4ccnc4)(c4ccc(Cl)cc4Cl)O3)cc2)CC1 (configuration not stated)", "Qualitative label": "criterion met"}
{"Molecule": "O=C(O)COc1nn(Cc2ccccc2)c2ccccc12", "Qualitative label": "criterion not met"}
{"Molecule": "CC[C@@H](CO)NCCN[C@@H](CC)CO", "Qualitative label": "criterion met"}
{"Molecule": "CC(CCc1ccccc1)NCC(O)c1ccc(O)c(C(N)=O)c1 (configuration not stated)", "Qualitative label": "criterion not met"}
{"Molecule": "CC(=O)Nc1ccc2c(c1)Cc1ccccc1-2", "Qualitative label": "criterion not met"}

Reference source for all entries: ChEMBL document CHEMBL3885861
